Values compiled from ChEMBL document CHEMBL1148843.

tested on: Glutathione reductase, mitochondrial (Homo sapiens, UniProt P00390)
Sequence (P00390 whole entry): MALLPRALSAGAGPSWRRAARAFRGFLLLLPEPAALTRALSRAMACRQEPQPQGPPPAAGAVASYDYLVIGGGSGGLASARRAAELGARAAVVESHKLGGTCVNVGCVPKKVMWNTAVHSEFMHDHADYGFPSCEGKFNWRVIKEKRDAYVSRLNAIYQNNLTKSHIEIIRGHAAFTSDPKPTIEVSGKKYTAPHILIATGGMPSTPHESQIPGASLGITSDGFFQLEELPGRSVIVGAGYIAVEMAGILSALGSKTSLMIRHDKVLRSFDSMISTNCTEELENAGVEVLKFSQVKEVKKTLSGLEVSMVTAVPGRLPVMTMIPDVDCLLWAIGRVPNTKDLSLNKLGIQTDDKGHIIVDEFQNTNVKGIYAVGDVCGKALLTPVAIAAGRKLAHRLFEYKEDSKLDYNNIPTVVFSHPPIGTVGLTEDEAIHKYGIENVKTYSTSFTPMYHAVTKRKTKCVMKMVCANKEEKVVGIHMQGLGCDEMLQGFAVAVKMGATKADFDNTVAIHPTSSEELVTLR
Threshold-based label: IC50 under 60 µM gives fulfilled, IC50 not under 60 µM gives not fulfilled.

compound string | category
CS(=O)(=O)c1ccc(C(=O)CCN2CCCCC2)cc1 | not fulfilled
CN(C)CCC(=O)c1cccc([N+](=O)[O-])c1 | fulfilled
CC(C)(C)c1cc(CN2CCCCCC2)cc(C(C)(C)C)c1O | not fulfilled
CCc1ccc(NCCC(=O)c2ccc(Cl)c(Cl)c2)cc1 | not fulfilled
CN(C)CCC(=O)c1ccc(Cl)c(Cl)c1 | not fulfilled
CCCCOC(=O)c1ccc(NCCC(=O)c2cccc([N+](=O)[O-])c2)cc1 | not fulfilled
O=C(CCNc1ccccc1)c1cccc([N+](=O)[O-])c1 | fulfilled
CC(C)(C)c1cc(CNCCO)cc(C(C)(C)C)c1O | fulfilled
Cc1cccc(NCCC(=O)c2cccc([N+](=O)[O-])c2)c1C | not fulfilled
CN(C)CCC(=O)c1ccc(S(C)(=O)=O)cc1 | fulfilled
O=C(CCNc1cccc(F)c1)c1cccc([N+](=O)[O-])c1 | not fulfilled
O=C(CCN1CCOCC1)c1ccc(Cl)cc1 | not fulfilled
CC(C)c1cc(CN(C)C)cc(C(C)C)c1O | not fulfilled

====

tested on: Trypanothione reductase (Trypanosoma brucei brucei, UniProt P39051)
Sequence (P39051 whole entry): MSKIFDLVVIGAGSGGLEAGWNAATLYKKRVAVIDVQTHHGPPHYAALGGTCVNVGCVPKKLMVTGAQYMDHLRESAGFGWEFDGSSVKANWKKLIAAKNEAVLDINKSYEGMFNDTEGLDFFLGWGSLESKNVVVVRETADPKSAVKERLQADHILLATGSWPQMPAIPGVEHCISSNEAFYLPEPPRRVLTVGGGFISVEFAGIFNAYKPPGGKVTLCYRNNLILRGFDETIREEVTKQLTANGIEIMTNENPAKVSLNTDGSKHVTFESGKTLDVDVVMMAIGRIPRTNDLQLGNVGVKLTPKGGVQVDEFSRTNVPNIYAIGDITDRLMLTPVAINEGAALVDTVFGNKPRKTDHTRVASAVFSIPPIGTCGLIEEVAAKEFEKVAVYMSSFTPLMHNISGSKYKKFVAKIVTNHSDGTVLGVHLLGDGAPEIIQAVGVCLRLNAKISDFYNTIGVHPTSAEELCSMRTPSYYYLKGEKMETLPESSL
Threshold-based label: IC50 under 2 µM gives Criterion met, IC50 not under 2 µM gives Criterion not met.

compound string | tested on | category
CC(C)(C)c1cc(CN2CCCCCC2)cc(C(C)(C)C)c1O | Trypanothione reductase (Trypanosoma brucei brucei, UniProt P39051) | Criterion not met
CN(C)CCC(=O)c1ccc(S(C)(=O)=O)cc1 | Trypanothione reductase (Trypanosoma brucei brucei, UniProt P39051) | Criterion not met
CC(C)c1cc(CN(C)C)cc(C(C)C)c1O | Trypanothione reductase (Trypanosoma brucei brucei, UniProt P39051) | Criterion not met
CCCCOC(=O)c1ccc(NCCC(=O)c2cccc([N+](=O)[O-])c2)cc1 | Trypanothione reductase (Trypanosoma brucei brucei, UniProt P39051) | Criterion not met
Cc1cccc(NCCC(=O)c2cccc([N+](=O)[O-])c2)c1C | Trypanothione reductase (Trypanosoma brucei brucei, UniProt P39051) | Criterion met
CN(C)CCC(=O)c1cccc([N+](=O)[O-])c1 | Trypanothione reductase (Trypanosoma brucei brucei, UniProt P39051) | Criterion met
O=C(CCNc1cccc(F)c1)c1cccc([N+](=O)[O-])c1 | Trypanothione reductase (Trypanosoma brucei brucei, UniProt P39051) | Criterion not met
CN(C)CCC(=O)c1ccc(Cl)c(Cl)c1 | Trypanothione reductase (Trypanosoma brucei brucei, UniProt P39051) | Criterion not met
O=C(CCN1CCOCC1)c1ccc(Cl)cc1 | Trypanothione reductase (Trypanosoma brucei brucei, UniProt P39051) | Criterion not met
CS(=O)(=O)c1ccc(C(=O)CCN2CCCCC2)cc1 | Trypanothione reductase (Trypanosoma brucei brucei, UniProt P39051) | Criterion not met
O=C(CCNc1ccccc1)c1cccc([N+](=O)[O-])c1 | Trypanothione reductase (Trypanosoma brucei brucei, UniProt P39051) | Criterion met
CCc1ccc(NCCC(=O)c2ccc(Cl)c(Cl)c2)cc1 | Trypanothione reductase (Trypanosoma brucei brucei, UniProt P39051) | Criterion not met
